Reference for the values: paper PMC10397247

# test system: T1, 4H3907-bA
# T1 chain: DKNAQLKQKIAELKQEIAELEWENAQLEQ
# assay comment: two-hybrid library CCNG1;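 further: natural log of median RNA to DNA barcode read ratio; higher means stronger binding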
Listed here are binders together with their documented interaction score.
metric name: interaction score

>>> test_result("DKIAQLKQENAELEQKNAELKWEIAQLEQ [4H2745-bA]")
-1.14
>>> test_result("DKIAQLKQEIAELEQEIAELEWKNAQLKQ [4H2568-bA]")
1.89
>>> test_result("DEIAQLEQKIAELKQKIAELKWENAQLEQ [4H363-bA]")
1.32
>>> test_result("DKNAQLKQEIAELEQENAELEWEIAQLEQ [4H3601-bA]")
-1.15
>>> test_result("DKNAQLKQKIAELKQEIAELEWENAQLEQ [4H3907-bA]")
0.8
>>> test_result("DKNAQLKQEIAELEQEIAELEWKNAQLKQ [4H3592-bA]")
0.467
>>> test_result("DENAQLEQEIAELEQKIAELKWKNAQLKQ [4H1072-bA]")
0.997
